Recorded values, source PubChem BioAssay (NCATS).

# Tested on: CAOV3
# procedure text: Primary qHTS to identify gynecologic anti-cancer compounds using libraries of approved drugs and bioactive compounds (AID 1345084); note: nearly all actives have a fitted effect of over 55% in size
# condition context: Gynecologic cancer cell panel viability, ATPlite luminescence, 48 h; series mostly up to 57.5 µM
Results filed as inconclusive are left out. The source made the active and inactive calls. Calls come from the whole dose curve; as a rule, active = well fitted cell-killing curve with a large enough effect; inconclusive = small, poorly fitted or top-dose-only effect, or effect the other way; inactive = flat fitted curve, though single readings scatter.
Classes to choose from: active, inactive

Here's what some known entries look like.
### Prompt Recorded test call requested for "C/C1=C\CCC2=C[C@@H](OC2=O)c2c(C)coc2C1"
### Response inactive

### Prompt Recorded test call requested for "CCN(CC)CCN(Cc1ccc(-c2ccc(C(F)(F)F)cc2)cc1)C(=O)Cn1c(SCc2ccc(F)cc2)nc(=O)c2c1CCC2"
### Response active

Here is the next item to consider.
### Prompt Recorded test call requested for "CC(=O)SCC(=O)c1ccc(NS(=O)(=O)c2ccc(OCCCN(C)C)cc2)nc1"
### Response inactive

----------
# Tested on: Tov112D
# procedure text: Primary qHTS to identify gynecologic anti-cancer compounds using libraries of approved drugs and bioactive compounds (AID 1345084); note: nearly all actives have a fitted effect of over 55% in size
# condition context: Gynecologic cancer cell panel viability, ATPlite luminescence, 48 h; series mostly up to 57.5 µM
Records with an inconclusive call do not appear. Activity calls are given as the source filed them. Calls come from the whole dose curve; as a rule, active = well fitted cell-killing curve with a large enough effect; inconclusive = small, poorly fitted or top-dose-only effect, or effect the other way; inactive = flat fitted curve, though single readings scatter.
Classes to choose from: active, inactive

Here's what some known entries look like.
### Prompt Recorded test call requested for "CS(=O)(=O)c1ccc(-c2nnc(/C=C/c3nnc(-c4ccc(C#N)cc4)o3)n2-c2ccccc2Cl)nc1"
### Response inactive

### Prompt Recorded test call requested for "COc1c(Nc2ncc(Cl)c(N[C@H]3[C@@H](C(N)=O)[C@@H]4C=C[C@H]3C4)n2)ccc2c1CC[C@@H](N1CCOCC1)CC2"
### Response inactive

### Prompt Recorded test call requested for "COc1ccc(C(=O)C2CCN(CC(=O)N(Cc3nc4c(c(=O)[nH]3)COCC4)CC3CC3)CC2)cc1"
### Response inactive

Further cases:
### Prompt Recorded test call requested for "Cc1ccc(NC(=O)c2ccc(CN3CC[C@H](N(C)C)C3)c(C(F)(F)F)c2)cc1Nc1nccc(-c2cncnc2)n1"
### Response inactive

### Prompt Recorded test call requested for "CC(C)(C)Nc1nc(Nc2ccc(C(N)=O)cc2)cc(N)c1C#N"
### Response inactive

### Prompt Recorded test call requested for "CN(C)C/C=C/C(=O)Nc1cccc(C(=O)Nc2ccc(Nc3nccc(-c4cccnc4)n3)cc2)c1"
### Response active

### Prompt Recorded test call requested for "Cc1nc2sc(C(=O)NCc3ccncc3)c(N)c2c(C)c1Cl"
### Response inactive

### Prompt Recorded test call requested for "COc1cc2c(cc1O)[C@H](c1ccc(O[C@@H]3O[C@H](CO)[C@@H](O)[C@H](O)[C@H]3O)c(OC)c1)[C@@H](CO)[C@](O)(CO)C2"
### Response inactive

----------
# Test system: Tov112D
# procedure text: Primary qHTS to identify gynecologic anti-cancer compounds using libraries of approved drugs and bioactive compounds (AID 1345084); note: nearly all actives have a fitted effect of over 55% in size
# condition context: Gynecologic cancer cell panel viability, ATPlite luminescence, 48 h; series mostly up to 57.5 µM
Records with an inconclusive call do not appear. The source made the active and inactive calls. Calls follow the shape of the dose curve; as a rule, active = well fitted cell-killing curve with a large enough effect; inconclusive = small, poorly fitted or top-dose-only effect, or effect the other way; inactive = flat fitted curve, though single readings scatter.
Classes to choose from: Y = active, N = inactive

### Prompt Recorded test call requested for "CC(C)S(=O)(=O)N[C@H]1CCOC[C@@H]1c1ccc(-c2ccc(C#N)s2)cc1"
### Response N

Further cases:
### Prompt Recorded test call requested for CCC1=CC2CN(C1)Cc1c([nH]c3ccccc13)[C@@](C(=O)OC)(c1cc3c(cc1OC)N(C)[C@H]1[C@@](O)(C(=O)OC)[C@H](OC(C)=O)[C@]4(CC)C=CCN5CC[C@]31[C@@H]54)C2 (stereo not given in full)
### Response Y

### Prompt Recorded test call requested for C=C1C(=O)OC2/C=C(\CO)CC/C=C(\C=O)CC(OC(=O)CC(C)C)C12 (stereo not given)
### Response N
